- targetOrTestSystem: T1, Recombinant Human DLL4 (delta-like protein 4) (human, UniProt Q9NR61 27-524)
- T1 construct: Bought recombinant human DLL4 (R&D Systems Cat#1506-D4/CF); also called rHuman DLL4
- experimentDescription: ELISA, DLL4-coated plate, 100 nM Fab
measurementName: ELISA Signal [100 nM Fab]
Format: numeric value only, no unit, no commentary.

Some solved entries appear below for comparison.
>  <binder>
Fab VH5-51_IGHD5-18*01>3_IGHJ4*01 G100K/G104T & V3-4_IGLJ1*01 M94N (Fab, V domains shown, Fab; expressed with CH1 (His and Flag tags) and lambda CL from the expression plasmids; also called H:KT & M94N) VH: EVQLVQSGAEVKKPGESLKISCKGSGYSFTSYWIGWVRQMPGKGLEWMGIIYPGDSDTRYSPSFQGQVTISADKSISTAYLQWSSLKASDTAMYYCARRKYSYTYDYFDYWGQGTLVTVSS VL: QTVVTQEPSFSVSPGGTVTLTCGLSSGSVSTSYYPSWYQQTPGQAPRTLIYSTNTRSSGVPDRFSGSILGNKAALTITGAQADDESDYYCVLYNGSGISYVFGTGTKVTVL

>  <numericResult>
0.01

$$$$
>  <binder>
Fab VH5-51_IGHD5-18*01>3_IGHJ4*01 G100K/G104T & V3-4_IGLJ1*01 V91R (Fab, V domains shown, Fab; expressed with CH1 (His and Flag tags) and lambda CL from the expression plasmids; also called H:KT & V91R) VH: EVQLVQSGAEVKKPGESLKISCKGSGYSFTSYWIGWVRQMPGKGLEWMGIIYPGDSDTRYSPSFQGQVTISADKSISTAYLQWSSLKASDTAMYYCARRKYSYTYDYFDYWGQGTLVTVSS VL: QTVVTQEPSFSVSPGGTVTLTCGLSSGSVSTSYYPSWYQQTPGQAPRTLIYSTNTRSSGVPDRFSGSILGNKAALTITGAQADDESDYYCRLYMGSGISYVFGTGTKVTVL

>  <numericResult>
0

$$$$

May I ask what ELISA Signal [100 nM Fab] has been recorded for Fab VH5-51_IGHD5-18*01>3_IGHJ4*01 G100K/G104T & V3-4_IGLJ1*01 M94T (Fab, V domains shown, Fab; expressed with CH1 (His and Flag tags) and lambda CL from the expression plasmids; also called H:KT & M94T) VH: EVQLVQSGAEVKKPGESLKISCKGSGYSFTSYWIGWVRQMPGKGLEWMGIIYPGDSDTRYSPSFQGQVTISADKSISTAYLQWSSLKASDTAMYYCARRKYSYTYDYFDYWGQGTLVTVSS VL: QTVVTQEPSFSVSPGGTVTLTCGLSSGSVSTSYYPSWYQQTPGQAPRTLIYSTNTRSSGVPDRFSGSILGNKAALTITGAQADDESDYYCVLYTGSGISYVFGTGTKVTVL ?
0.02
